# System: Staphylococcus aureus
# assay-remarks: Antibacterial activity against methicillin-resistant Staphylococcus aureus ATCC 33591 measured after 12 to 18 hrs
# Type: functional
Please provide measured MIC for the entries that follow.
Numbers only, in µg/mL.

Answered examples (2):
CCCC[n+]1nn(-c2ccc([N+](=O)[O-])cc2)c2c1C(=O)c1ccccc1C2=O.O=S(=O)([O-])C(F)(F)F 2
COc1ccc(-n2n[n+](C)c3c2C(=O)c2ccccc2C3=O)cc1.O=S(=O)([O-])C(F)(F)F 0.5

Kindly give each listed record's MIC.
1. C[n+]1nn(-c2ccc(C#N)cc2)c2c1C(=O)c1ccccc1C2=O.O=S(=O)([O-])C(F)(F)F
2. COc1ccc(-n2n[n+](-c3ccc(OC)c(OC)c3)c3c2C(=O)c2ccccc2C3=O)cc1OC.O=S(=O)([O-])C(F)(F)F
3. C[n+]1nn(-c2ccc([N+](=O)[O-])cc2)c2c1C(=O)c1ccccc1C2=O.O=S(=O)([O-])C(F)(F)F

[1, 2, 1]

---

# System: Staphylococcus aureus
# assay-remarks: Antibacterial activity against methicillin-resistant Staphylococcus aureus ATCC 33591 measured after 12 to 18 hrs
# Type: functional
measurement-kind: MIC (µg/mL)
One number for each entry, in µg/mL.

Worked examples follow.
compound	target-of-assay	MIC, µg/mL
CC[n+]1nn(-c2ccc(OC)cc2)c2c1C(=O)c1ccccc1C2=O.O=S(=O)([O-])C(F)(F)F	Staphylococcus aureus	2
CCCCCCCCCC[n+]1nn(-c2ccc([N+](=O)[O-])cc2)c2c1C(=O)c1ccccc1C2=O.O=S(=O)([O-])C(F)(F)F	Staphylococcus aureus	8
C[n+]1nn(-c2ccc(F)cc2)c2c1C(=O)c1ccccc1C2=O.O=S(=O)([O-])C(F)(F)F	Staphylococcus aureus	0.5
CCCCCC[n+]1nn(-c2ccc([N+](=O)[O-])cc2)c2c1C(=O)c1ccccc1C2=O.O=S(=O)([O-])C(F)(F)F	Staphylococcus aureus	1
CCCCCCCC[n+]1nn(-c2ccc([N+](=O)[O-])cc2)c2c1C(=O)c1ccccc1C2=O.O=S(=O)([O-])C(F)(F)F	Staphylococcus aureus	16

Okay, now this compound:
# value of MIC, Staphylococcus aureus, item NC[C@@H]1O[C@H](O[C@H]2[C@@H](O)[C@H](O[C@@H]3[C@@H](O)[C@H](N)C[C@H](N)[C@H]3O[C@H]3O[C@H](CN)[C@@H](O)[C@H](O)[C@H]3N)O[C@@H]2CO)[C@H](N)[C@@H](O)[C@@H]1O [FRAMYCETIN] = 256

---

# Test system: Staphylococcus aureus
# assay-remarks: Antibacterial activity against Staphylococcus aureus ATCC 25923 measured after 12 to 18 hrs
# Format: functional
For each entry below, report its MIC value.

CC[n+]1nn(-c2ccc([N+](=O)[O-])cc2)c2c1C(=O)c1ccccc1C2=O.O=S(=O)([O-])C(F)(F)F 8 to 16 µg/mL
CC[n+]1nn(-c2ccc(OC)cc2)c2c1C(=O)c1ccccc1C2=O.O=S(=O)([O-])C(F)(F)F 4 to 8 µg/mL
CCCCCC[n+]1nn(-c2ccc([N+](=O)[O-])cc2)c2c1C(=O)c1ccccc1C2=O.O=S(=O)([O-])C(F)(F)F 2 to 4 µg/mL
NC[C@@H]1O[C@H](O[C@H]2[C@@H](O)[C@H](O[C@@H]3[C@@H](O)[C@H](N)C[C@H](N)[C@H]3O[C@H]3O[C@H](CN)[C@@H](O)[C@H](O)[C@H]3N)O[C@@H]2CO)[C@H](N)[C@@H](O)[C@@H]1O 2 to 4 µg/mL
COc1ccc(-n2n[n+](C)c3c2C(=O)c2ccccc2C3=O)cc1.O=S(=O)([O-])C(F)(F)F 1 to 2 µg/mL
CCCCCCCCCC[n+]1nn(-c2ccc([N+](=O)[O-])cc2)c2c1C(=O)c1ccccc1C2=O.O=S(=O)([O-])C(F)(F)F 2 to 4 µg/mL

Attention now shifts to the item below.
The reported Staphylococcus aureus MIC of CC[n+]1nn(-c2ccc(Cl)cc2)c2c1C(=O)c1ccccc1C2=O.O=S(=O)([O-])C(F)(F)F is 2 to 4 µg/mL
